tested on: HT29 colon; assay: NCI tumour cell line growth inhibition, 48 h
Reported metric: TGI

INSERT INTO measurements (compound, result) VALUES
  ('Cc1ccc(NC(=O)c2cc(S(=O)(=O)Nc3n[nH]c(=O)n3-c3ccccc3)c(S)cc2Cl)cc1', '> 100 µM'),
  ('COC(=O)Cc1c(C(=O)CC(C)(C)n2cnc(CCN3C(=O)CCC3=O)c2)[nH]c2ccccc12', '> 100 µM'),
  ('Cc1c2c(nn1-c1ccc(S/N=C3\SCC(=O)CN3Cc3ccccc3)cc1)-c1ccccc1CC2', '> 100 µM'),
  ('N=C1N(/N=C/c2ccccn2)C(=Nc2ccccc2)C(=S)N1c1ccccc1', '13.6 µM'),
  ('O=C1Nc2ccccc2/C1=C\c1c[nH]c2ccc(Br)cc12', '6.56 µM'),
  ('COC(=O)c1cc2/c(=N/O)c3ccccc3sc2o1', '> 100 µM'),
  ('O=c1[nH]cnc2c1ccn2C1OC(CO)C(O)C1O (configuration not stated)', '> 100 µM'),
  ('Clc1ccc2c(NCCNC3CCCCC3)ccnc2c1', '14.8 µM'),
  ('O=C1C(N2CCOCC2)=C(Cl)C(=O)c2ncccc21', '> 10 µM'),
  ('CC(NC(=O)OC(C)(C)C)C(=O)NC(Cc1ccccc1)C(=O)NCC(=O)ON=C1CCCC1 (configuration not stated)', '> 100 µM'),
  ('CN(C)c1nc(N)nc(CCl)n1', '> 100 µM'),
  ('O=[N+]([O-])c1ccc(OCc2nnc(CCCCCCCCc3nnc(COc4ccc([N+](=O)[O-])cc4)o3)o2)cc1', '> 100 µM'),
  ('O=C(O)COc1ccc(C(=O)/C(SS/C(C(=O)c2ccc(OCC(=O)O)c(Cl)c2Cl)=C2\C=C(c3ccc(F)cc3)SS2)=C2/C=C(c3ccc(F)cc3)SS2)c(Cl)c1Cl', '70.6 µM'),
  ('COc1cc(C2CC(c3cccc(Nc4ccnc5cc(Cl)ccc45)c3)=NN2C=O)cc(OC)c1OC (configuration not stated)', '1.23 µM'),
  ('CC(C)(C)c1ccc(S(=O)(=O)N2C(c3cccc(C4CC[C@@H](C(=O)O)N4S(=O)(=O)c4ccc(C(C)(C)C)cc4)c3)CC[C@H]2C(=O)O)cc1 (some centres not stated)', '> 100 µM'),
  ('CC(C)(C)OC(=O)NC(Cc1ccc(OCc2ccccc2)cn1)C(=O)N1CCCC1 (configuration not stated)', '> 100 µM'),
  ('CCOCc1cc(=O)c2cc3c(cc2o1)OC(C)(C)CC3', '> 100 µM'),
  ('O=C(CSc1nnc(-c2ccccn2)s1)N/N=C/c1ccc([N+](=O)[O-])cc1', '> 100 µM'),
  ('CCNCC(O)COc1ccc2c(c1)[n+]([O-])nc(N)[n+]2[O-] (configuration not stated)', '> 100 µM'),
  ('CC1=CC(O)(c2ccccc2)C(N2CCOCC2)N1O (configuration not stated)', '> 100 µM'),
  ('O=C(CC1C(=O)Nc2ccccc2S1(=O)=O)Nc1cc(Cl)ccc1Cl (configuration not stated)', '34.3 µM'),
  ('CC(C)C(N=c1c2ccccc2n(O)c2ccccc12)C(=O)O (configuration not stated)', '> 100 µM'),
  ('O=C1OC(c2ccccc2)=N/C1=C\c1ccc(Cl)cc1', '> 100 µM'),
  ('S=c1nc2sc3c(c2c(Nc2ccccc2)[nH]1)CCCC3', '> 100 µM'),
  ('Cc1ncc(C(=O)Nc2ccc(CN3CCN(C)CC3)c(C(F)(F)F)c2)cc1C#Cc1c(N)ncc2ccc(F)cc12', '0.651 µM'),
  ('COc1ccc(C(CC(C)=O)c2c(O)c3ccccc3oc2=O)cc1OC (configuration not stated)', '> 100 µM'),
  ('COc1cccc2c(=O)c3c(n(C)c12)OC(C(C)C)C3 (configuration not stated)', '> 100 µM'),
  ('C=C1c2nc3ccccc3n2C=C(c2ccc(OC)cc2)N1c1ccccc1', '26.7 µM'),
  ('Cn1cc(C2=C(Oc3ccccc3)C(=O)NC2=O)c2ccccc21', '> 25 µM'),
  ('CC1(C(=O)Nc2ccc3cc4ccccc4cc3c2)CC2(C)CC(C)(C1)C(O)NC2=O (configuration not stated)', '> 100 µM'),
  ('N#Cc1c(N2CCCC2)ncn(-c2ccccc2)c1=S', '> 100 µM'),
  ('O=C(Nc1ccc2[nH]c3c(-c4ccccc4)nccc3c2c1)c1ccccc1[N+](=O)[O-]', '4.3 µM');

----------
# key: entry, value: TGI
tested on: LOX IMVI melanoma; test: NCI tumour cell line growth inhibition, 48 h
Reported metric: TGI

INSERT INTO results (compound, reported_metric, result) VALUES
  ('COc1ccc2c(C)cc(C)nc2n1', 'TGI', '> 100 µM'),
  ('O=C(/C=C/c1ccc(Cl)cc1)c1ccc(Cl)c(Cl)c1', 'TGI', '> 100 µM'),
  ('O=[N+]([O-])c1ccccc1N=Nc1c(O)[nH]c2ccc(S(=O)(=O)O)cc12', 'TGI', '> 100 µM'),
  ('CCN1C(C)(C)CC(Oc2ccc(C(=O)Nc3ccc(NC(=O)Nc4cc(C(C)(C)C)on4)cc3)nc2)CC1(C)C', 'TGI', '3.31 µM'),
  ('COc1ccc(C2=C(Cl)C(=O)N(c3ccc(OC)cc3OC)C(=O)C2(Cl)Cl)cc1', 'TGI', '30.8 µM'),
  ('C=C1CCC(OC(C)=O)C2(C)C(OC(C)=O)CC3OC3(C)C2C(OC(C)=O)C2C(C)C(=O)OC2C1Cl (stereo not given)', 'TGI', '> 100 µM'),
  ('COc1cccc(CC2C(=O)N=C(NC(C)=O)N2C)c1OC(C)=O (stereo not given)', 'TGI', '> 100 µM'),
  ('CC(C)NC(=O)OCc1c(COC(=O)NC(C)C)c(-c2ccc[n+](COC(=O)C(C)C)c2)n2c1CCC2', 'TGI', '> 100 µM'),
  ('Nc1cccc(CCN2CCN(CCCc3ccccc3)CC2)c1', 'TGI', '33.1 µM'),
  ('CC(C)(Oc1ccc(Cl)cc1)C(=O)N(C(=O)N1CCN(c2ccccc2)CC1)c1ccccc1', 'TGI', '> 100 µM'),
  ('COC1=CC(=O)[C@]2(C)[C@H](C1=O)C(C)[C@H]2c1ccc(OC)cc1 (stereo not given in full)', 'TGI', '> 100 µM'),
  ('COC(=O)C1(C(=O)OC)CC(=O)c2c(OC(=O)c3cccc(OC)c3C#N)ccc(OC(=O)c3cccc(OC)c3C#N)c2C1', 'TGI', '> 100 µM'),
  ('COC(=O)/C(=N/NC(N)=O)C(C(=O)C(=O)Nc1ccc(C)cc1)c1nc2ccc(C(=O)c3ccccc3)cc2[nH]c1=O (stereo not given)', 'TGI', '> 100 µM'),
  ('CN=c1ss/c(=N\C(=S)N(C)C)n1-c1ccccc1', 'TGI', '> 100 µM'),
  ('O=C(OCc1nc2nc(Cl)nc(N3CCOCC3)c2[nH]1)n1ccnc1', 'TGI', '2.17 µM'),
  ('N#Cc1c(N2CCCC2)ncn(-c2ccccc2)c1=S', 'TGI', '> 100 µM'),
  ('O=c1[nH]cnc2c1ccn2C1OC(CO)C(O)C1O (stereo not given)', 'TGI', '16 µM'),
  ('COc1ccn(CC(=O)c2cc3ccccc3[nH]2)c(=O)n1', 'TGI', '> 100 µM'),
  ('CC1(C(=O)Nc2ccc3cc4ccccc4cc3c2)CC2(C)CC(C)(C1)C(O)NC2=O (stereo not given)', 'TGI', '> 100 µM'),
  ('COc1cccc2c1C(=O)c1c(O)c3c(c(O)c1C2=O)C[C@@](O)(C(C)=O)C[C@@H]3O[C@H]1C[C@H](N)[C@H](O)[C@H](C)O1', 'TGI', '0.107 µM');

----------
system: SK-MEL-2 melanoma; assay: NCI tumour cell line growth inhibition, 48 h
Reported metric: GI50

INSERT INTO assay_data (compound, result) VALUES
  ('CS(=O)(=O)CCN(CC#N)Cc1ccc(-c2ccc3ncnc(Nc4ccc(OCc5cccc(F)c5)c(Cl)c4)c3c2)o1', '17.3 µM'),
  ('CCn1c(-c2nonc2N)nc2c(C#CC(C)(C)O)nc(CN3CCCC3)cc21', '> 25 µM'),
  ('CCN1C(C)(C)CC(Oc2ccc(C(=O)Nc3ccc(NC(=O)Nc4cc(C(C)(C)C)on4)cc3)nc2)CC1(C)C', '2.09 µM'),
  ('C/C(=C1\SC(=NCc2cccs2)NC1=O)c1ccc2ncccc2c1', '> 25 µM'),
  ('O=C(NCCCN1CCC(N2CCCCC2)CC1)C1=Cc2cc(Br)ccc2OC1', '8.14 µM'),
  ('Clc1ccc(Nc2nnc(CNc3ccccc3)c3ccccc23)cc1', '2.16 µM'),
  ('[C-]#[O+].[C-]#[O+].[C-]#[O+].[C-]#[O+].[O-]C(c1ccccc1[PH+]1OC(C(F)(F)F)(C(F)(F)F)c2ccccc21)(C(F)(F)F)C(F)(F)F.[Re] (centres undefined)', '4.88 µM'),
  ('Clc1ccc(CNc2ccc3nc(CCC4CCCCC4)[nH]c3c2)cc1', '2.24 µM'),
  ('NC1CCCCC1N.O=C([O-])c1cc(S(=O)(=O)Nc2cc(S(=O)(=O)[O-])cc3cc(S(=O)(=O)[O-])cc(O)c23)ccc1[O-].[Pt+4]', '> 100 µM');

Cited source: PubChem BioAssay (NCI)
